Numbers sourced from patent US20210221899A1.

Target: T1, human NGF (human, UniProt P01138 122-241)
T1 construct: also called human Nerve Growth Factor; hN
T1 chain: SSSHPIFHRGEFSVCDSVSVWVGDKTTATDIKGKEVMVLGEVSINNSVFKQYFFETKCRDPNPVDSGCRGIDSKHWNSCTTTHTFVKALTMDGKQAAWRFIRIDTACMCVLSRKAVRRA
Assay: SPR (Biacore T200), 100 nM mAb on NGF chip, similarity to parent mAb
Outcome measure: Percent Similarity Score (KD on hN) (%)
Enter your answer as a number in %; do not include the unit.

Known results for binders:
>  <Binder>
can9L12VL_L96A (antibody, V domains shown) VH: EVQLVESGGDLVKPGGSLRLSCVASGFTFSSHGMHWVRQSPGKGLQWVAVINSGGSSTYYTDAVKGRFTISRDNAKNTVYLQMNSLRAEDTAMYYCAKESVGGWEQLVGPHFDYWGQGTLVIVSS VL: QSVLTQPTSVSGSLGQRVTISCSGSTNNIGILGASWYQLFPGKAPKLLVYGNGNRPSGVPDRFSGADSGDSVTLTITGLQAEDEADYYCQSFDTTAGAHVFGGGTHLTVL

>  <Measurement unit>
%

>  <Percent Similarity Score (KD on hN)>
34.2

$$$$
>  <Binder>
can9L12VH_D113A (antibody, V domains shown) VH: EVQLVESGGDLVKPGGSLRLSCVASGFTFSSHGMHWVRQSPGKGLQWVAVINSGGSSTYYTDAVKGRFTISRDNAKNTVYLQMNSLRAEDTAMYYCAKESVGGWEQLVGPHFAYWGQGTLVIVSS VL: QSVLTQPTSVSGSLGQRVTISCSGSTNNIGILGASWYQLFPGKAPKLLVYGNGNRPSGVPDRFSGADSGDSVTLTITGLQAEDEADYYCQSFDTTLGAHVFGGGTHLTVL

>  <Measurement unit>
%

>  <Percent Similarity Score (KD on hN)>
100

$$$$

Next:
-- ask Would you mind telling me what Percent Similarity Score (KD on hN) value was observed for can9L12VL_G97A (antibody, V domains shown) VH: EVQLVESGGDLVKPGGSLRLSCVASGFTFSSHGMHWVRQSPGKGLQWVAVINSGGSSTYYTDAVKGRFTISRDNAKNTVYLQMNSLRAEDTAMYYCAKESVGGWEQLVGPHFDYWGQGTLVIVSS VL: QSVLTQPTSVSGSLGQRVTISCSGSTNNIGILGASWYQLFPGKAPKLLVYGNGNRPSGVPDRFSGADSGDSVTLTITGLQAEDEADYYCQSFDTTLAAHVFGGGTHLTVL ?
-- reply 43.3
